- method-description: NCI Yeast Anticancer Drug Screen. Data for the bub3 strain (AID 167)
- condition-description: S. cerevisiae bub3 mutant strain, at 5.0 µM (retest, dose inferred, filed as 0.5), stronger effect = higher value
This is part of a sample that, as a whole, favours compounds with a hit. Of some 79,000 tested, about 15% had one in any assay. Active and inactive are the calls of the source. No stated cut-off is given here; in the data, active means growth inhibition above about 70%; inactive means the rest.
quantity-kind: growth inhibition

                                   compound             val
0           O=P(O)(Oc1ccccc1)Oc1ccccc1.[Ag]   100% (active)
1  CC1CC[N-]C(C)C1.CN(C)C=O.[Cl][Pt][Cl] (stereo unspecified)    73% (active)
2  C1CCC(NCC2CCCO2)CC1 (stereo unspecified)  -2% (inactive)
3  NC(=O)c1ccc(C(=O)Nc2ccc([As](=O)(O)O)cc2)cc1  -7% (inactive)
4        Clc1ccccc1C#[C][Hg][C]#Cc1ccccc1Cl  -3% (inactive)
5  [Cl][Sn]([CH2]c1ccccc1)([CH2]c1ccccc1)[CH2]c1ccccc1    99% (active)

###

- method-description: NCI Yeast Anticancer Drug Screen. Data for the cln2 rad14 strain (AID 165);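 further: 0% = growth equal to vehicle treated cultures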
- condition-description: S. cerevisiae cln2 rad14 strain, at 50.0 µM, stronger effect = higher value
About 79,000 compounds went through this panel and 15% of them were active in at least one assay; those are over-represented in the sample as a whole.
# growth inhibition listing for each entry below
quantity-kind: growth inhibition (%)

>>> df
                                    molecule    val
 0  CCCC(C)c1ccc(SOO)cc1.[Fe] (stereo unspecified)  -17.5
 1  CC(=O)Nc1ncc2ccccc2c1-c1ccc(NC(=O)CCN(CCCl)CCCl)cc1  -30.1
 2  O=[As](O)(O)c1cc(N=Nc2ccc(-c3ccc(N=Nc4cc([As](=O)(O)O)c(O)cc4O)cc3)cc2)c(O)cc1O  -19.7
 3  N#C[C@H](OC1OC(COC2OC(CO)C(O)C(O)C2O)C(O)C(O)C1O)c1ccccc1 (stereo partly specified)   -1.3
 4  C=CCC1(OC(C)=O)CCC2C3CCC4CC=CCC4(C)C3CCC21C (stereo unspecified)  -51.4
 5  O=[N+]([O-])O.c1ccc([As+](c2ccccc2)(c2ccccc2)c2ccccc2)cc1   97.6
 6                           CCOC(=O)C(Cl)Cl  -39.8
 7             Cc1cccc(N=Nc2ccc(N(C)C)cc2)c1  -29.6
 8  CC(=O)[O-].CC(=O)[O-].O=C(N/N=C/c1cc(Cl)cc(Cl)c1[OH2+])c1ccncc1.[Co+2]   26.4
 9  CC([NH-])C[NH-].[Na+].[O]=[Co][O-] (stereo unspecified)  -21.6
10                       O=c1cc(O)c2ccccc2o1   15.6
11  CN(Cc1cnc2nc(N)nc(N)c2n1)c1ccc(C(=O)NC(CCC(=O)NC(CC(P(=O)(O)O)P(=O)(O)O)C(=O)O)C(=O)O)cc1 (stereo unspecified)   16.6
12  [C-]#[N+]C1CCCCC1.[C-]#[N+]C1CCCCC1.[Ni].[S-]c1ccccc1.[S-]c1ccccc1   20.1
13                              O=Cc1ccccc1O  -10.4
14  [C-]#[O+].[C-]#[O+].[Ni].c1ccc([PH+](CC[PH+](c2ccccc2)c2ccccc2)CC[PH+](c2ccccc2)c2ccccc2)cc1   3.75
15  CC(=O)O.CC(=O)O.CC(=O)O.CC(=O)O.CC(=O)O.CC(=O)O.O.[Ti].[Ti]   -4.2
16  CC(=O)O/C=C(/C=C/OC(C)=O)C(C/C=C(\C)C#CC=C(C)C)OC(C)=O (stereo unspecified)   -2.2
17                           N#CC(Cl)(Cl)CCl     47
18  C[CH2][Sn]([CH2]C)([CH2]CC(=O)OC)[CH2]CC(=O)OC    -11
19  COc1ccc2c(c1OC)C[C@@H]1c3c(cc4c(c3-2)OCO4)CCN1C  -14.6
20  CCOP(=O)(CSCCC1(C)NC(=O)NC1=O)OCC (stereo unspecified)   2.65

###

- method-description: NCI Yeast Anticancer Drug Screen. Data for the rad50 strain (AID 155);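 further: 0% = growth of vehicle-only cultures of the same strain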
- condition-description: S. cerevisiae rad50 strain growth inhibition; at 5.0 µM (retest, dose inferred, filed as 0.5)
Compounds without any hit were thinned out: in the full panel of roughly 79,000, 15% have a hit. Activity calls are given as the source filed them. No stated cut-off is given here; in the data, active means growth inhibition above about 70%; inactive means the rest.
Labels: t for active, f for inactive

In [3]: df
Out[3]:
                                    compound  group_label
 0  O=C1C=CC(=O)C(Br)C1Br (configuration not stated)            f
 1                               IC(I)=C(I)I            t
 2  CC(CCc1ccccc1)NC(C)C(O)c1ccc(O)cc1 (configuration not stated)            f
 3  CC(C=O)[Se]c1ccccc1 (configuration not stated)            f
 4  Cc1cc(N(CCCl)CCCl)ccc1C=Nc1ccc(-c2csc(Cc3ccccc3)n2)c(Cl)c1            f
 5  [Cl-].[Cl-].[Cl-].[O-]c1cccc2cccnc12.[O-]c1cccc2cccnc12.[O]=[Mo]            t
 6  C=C1C(C)C2C(Cc3ccccc3)NC(=O)C23C(OC(C)=O)/C=C/C(C)(O)CC(C)C/C=C/C3C1O (configuration not stated)            t
 7  CCOC(=O)c1ccc(NP(=O)(Oc2ccccc2)Oc2ccccc2)cc1            f
 8  CC1(C)C2CCC([CH2][Hg][Cl])C1C2 (configuration not stated)            t
 9  CN1C(=O)C23CC4=CC=CC(O)C4N2C(=O)C1(CO)SS3 (configuration not stated)            t
10               CN(C)C(=S)[S][Hg][c]1ccccc1            f
11  COC1OC(CO)C(O)C(O)[CH]1[Hg][Cl] (configuration not stated)            t

###

- method-description: NCI Yeast Anticancer Drug Screen. Data for the bub3 strain (AID 167)
- condition-description: S. cerevisiae bub3 mutant strain, at 50.0 µM
Compounds without any hit were thinned out: in the full panel of roughly 79,000, 15% have a hit. Calls of active or inactive are those of the source. No stated cut-off is given here; in the data, active means growth inhibition above about 70%; inactive means the rest.
Labels: True (active), False (inactive)

                                    compound  group_label
 0  O=c1cccc(C2CC(CO)C3CCCCN3C2)[nH]1 (stereo unspecified)        False
 1  Cc1ccc2c(O)c3c(cc2c1)C(=O)c1c2c(cc(O)c1C3=O)C1(C)OC(O2)C(O)C(N(C)C)C1O (stereo unspecified)         True
 2  O=C([O-])CC(=O)[O-].[Cu+2].[OH3+].[OH3+]        False
 3             C1CN(P(N2CCOCC2)N2CCOCC2)CCO1        False
 4  CSCC(NP1(=O)SC(NN=C(C)C)=NC1(C)C)C(=O)O (stereo unspecified)        False
 5  CC(=O)OCC12CCC(C)=CC1OC1C(N(C)C)C(O)C2(C)C12CO2 (stereo unspecified)        False
 6  COc1cc(N=Nc2cccc(C(=O)O)c2)ccc1N(CCCl)CCCl        False
 7                O=C(O)COc1nc(Cl)c(Cl)cc1Cl        False
 8  Cc1nc(N)nc(N)c1CCCOc1ccc(NC(=O)c2cccc(S(=O)(=O)F)c2)cc1        False
 9               CCNCCC1(CC)C(=O)NC(=O)NC1=O        False
10    COc1ccc(C=C2C(=O)N(C)C(=O)N(C)C2=O)cc1        False

###

- method-description: NCI Yeast Anticancer Drug Screen. Data for the rad50 strain (AID 155);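 further: 0% = growth of vehicle-only cultures of the same strain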
- condition-description: S. cerevisiae rad50 strain growth inhibition; at 50.0 µM (retest, dose inferred, filed as 5.0); stronger effect = higher value
The panel holds about 79,000 compounds, 15% with a hit somewhere; the sample as a whole holds those more often.

molecule	growth inhibition / %
COc1cc(C(CC(=O)N(CCCl)CCCl)c2ccc3c(c2)OCO3)cc(OC)c1OC (stereo not drawn)	0
C/C=C1/C(=O)O[C@]23C=C[C@@H]4C(C(=O)OC)=CO[C@H](O[C@@H]12)[C@@H]43	82
C(=P(c1ccccc1)(c1ccccc1)c1ccccc1)[P+](c1ccccc1)(c1ccccc1)c1ccccc1.[Cl][Fe]([Cl])([Cl])[Br]	99
Oc1c(Cl)cc(Cl)c2ccccc12	71
CCOP(=O)(O)C(Nc1ccc(N=Nc2ccccc2)cc1)c1ccc(C(Nc2ccc(N=Nc3ccccc3)cc2)P(=O)(O)OCC)cc1 (stereo not drawn)	35
C/C(=N\N=C(/[Se])N1CCC(C)CC1)c1ccccn1	94
O=C([CH-]C(=O)c1ccccc1)c1ccccc1.O=C([CH-]C(=O)c1ccccc1)c1ccccc1.O=C([CH-]C(=O)c1ccccc1)c1ccccc1.[Cl-].[Hf+4]	95
[Cl][Hg][c]1ccco1	99
O=[N+]([O-])c1ccc(NP(=S)(Nc2ccc([N+](=O)[O-])cc2)c2ccccc2)cc1	91
[Cl][Sn]([c]1ccccc1)([c]1ccccc1)[c]1ccccc1	98
CC(=O)OCC12CCC(C)=CC1OC1C(O)C(OC(C)=O)C2(C)C12CO2 (stereo not drawn)	99
CC(=O)[C-](Cl)C(C)=O.CC(=O)[C-](Cl)C(C)=O.CC(=O)[C-](Cl)C(C)=O.[Ru+3]	98
O=[N+]([O-])/C=C/c1ccccc1Cl	98
C#CC(/C=C/Cl)(CC)OC(N)=O (stereo not drawn)	13
CC12CCC3C(CC=C4CC(SC(=N)N)CCC43C)C1CCC2=O (stereo not drawn)	33
C/C(=C\c1ccccc1)[N+](=O)[O-]	99
CCC[CH2][Sn]1([CH2]CCC)[O]CCN2CCN(CC[O]1)CC2	12
COc1ccc(CC2C(=O)NC(C)C(=O)N(C)C3C(=O)N(C)C(Cc4ccc(O)c(c4)Oc4ccc(cc4)C3O)C(=O)NC(C)C(=O)NC(C)C(=O)N2C)cc1 (stereo not drawn) (tested in a mixture with another compound)	99
N#C[S-].[La+3].c1cnc2c(c1)ccc1cccnc12.c1cnc2c(c1)ccc1cccnc12.c1cnc2c(c1)ccc1cccnc12	98
CC12CCC(=O)C=C1CCC1C2CCC2(C)C(O[Si](C)(C)OC3CCC4C5CCC6=CC(=O)CCC6(C)C5CCC34C)CCC12 (stereo not drawn)	44
O=C([O-])C(F)(F)C(F)(F)F.[C-]#[O+].[C-]#[O+].[C-]#[O+].[C-]#[O+].[C-]#[O+].[Re]	15
O=C(NCC1(O)N=C(c2ccc(F)cc2)c2ccsc2-n2cccc21)c1ccc(Cl)cc1Cl (stereo not drawn)	63
CCC[CH2][Sn]1([CH2]CCC)[O]C(=O)c2cccc(OC)c2[O]1	99
CC(C)c1oc(=O)cc2c1C(O)C1OC(=O)C3(C)C(O)C4OC4C2(C)C13 (stereo not drawn)	65
CC1CCC2(OC1)OC1C(O)C3C4CCC5CC(OC6OC(CO)C(OC7OC(CO)C(O)C(OC8OCC(O)C(O)C8O)C7OC7OC(CO)C(O)C(OC8OC(CO)C(O)C(O)C8O)C7O)C(O)C6O)C(O)CC5(C)C4CCC3(C)C1C2C (stereo not drawn)	99
O=C1C=C(N2CC2)C(=O)C(N2CC2)=C1N1CC1	98
O=[N+]([O-])/C=C/c1cccc(F)c1	99
COC1CCCC2OC3(OC)C(OC)CCCC3OC12OC (stereo not drawn)	-4
NC(=O)c1cc([N+](=O)[O-])c(Cl)c([N+](=O)[O-])c1Cl	65
CS(=N)(=O)CCC(N)C(=O)O (stereo not drawn)	-152
CC1(OO)CCC2CC1C2(C)C (stereo not drawn)	77
C[CH2][Sn]([CH2]C(=O)OC)([CH2]C(=O)OC)[c]1ccccc1	97
CCCNC1=C(C)C(=O)C2=C(C1=O)[C@H](COC(N)=O)[C@]1(OC)[C@@H]3N[C@@H]3CN21	66
ClC1CCCCC1[Se](Cl)(Cl)C1CCCCC1Cl (stereo not drawn)	98
[I][Hg][CH2]C1OCCOC1[CH2][Hg][I] (stereo not drawn)	3
S=C=NCCc1ccccc1	21
Oc1cc(Cl)c(Cl)cc1Cl.[Cu+2]	96
O=C1C(C(Nc2ccccc2)c2ccccc2)=C([O-])c2ccccc21.O=C1C(C(Nc2ccccc2)c2ccccc2)=C([O-])c2ccccc21.[Ni+2] (stereo not drawn)	81

Reference for the values: PubChem BioAssay (NCI)
